The compounds listed here are annotated with their MIC E. coli NCTC9001.
tested on: Escherichia coli; test: MIC, sole activity (no second agent); type: cell-based; conditions: in the absence of Rifampicin; strain NCTC9001
Structures can show the parent of a compound that is named as a salt. Numbered stars: 1 amine (or outer) side, 2 acyl side, 3 side chain; on linkers, the order of the positions; unused ones are H or OH. Bridge positions count the residues as written; N and C are the ends. Square brackets hold non-standard residues; d marks the D form. Peptide text beside a SMILES is read from it. * marks the point of attachment. ξ: configuration not given here. Achc(trans-4) = O=C([C@H]1CC[C@H](N[*:1])CC1)[*:2]; ξHexahydromandeloyl = O=C(C(O)C1CCCCC1)*; ξβ3hPhg = O=C(CC(N[*:1])c1ccccc1)[*:2]; X6 = N[C@@H](CC(=O)*)c1ccc2ccccc2c1; ξβ3hGly(cHex) = NC(CC(=O)*)C1CCCCC1; Thr(3ξ) = CC(O)[C@H](N)C(=O)O; Dab = NCC[C@H](N)C(=O)O; Dap = NC[C@H](N)C(=O)O; X14 = CC(C)(N)CCC(=O)*; X4 = NC1CCCC1C(=O)*; Ahx = NCCCCCC(=O)O; GABA = NCCCC(=O)O
endpoint.name: MIC E. coli NCTC9001 (micrograms/mL)

compound	comparative.sign	meas.value
CC(C)C[C@@H]1NC(=O)[C@@H](Cc2ccccc2)NC(=O)[C@H](CCN)NC(=O)[C@@H](NC(=O)[C@H](CCN)NC(=O)[C@@H](NC(=O)C[C@H](N)c2ccc3ccccc3c2)C(C)O)CCNC(=O)[C@H](C(C)O)NC(=O)[C@H](CCN)NC(=O)[C@H](CCN)NC1=O (some centres unmarked) [Example 38, trifluoroacetate salt] (X6-[Thr(3ξ)][Dab][Dab][Dab][dF]L[Dab][Dab][Thr(3ξ)]; lactam 3-C)	=	8
CC(C)C[C@@H]1NC(=O)[C@@H](Cc2ccccc2)NC(=O)[C@H](CCN)NC(=O)[C@@H](NC(=O)[C@H](CCN)NC(=O)[C@@H](NC(=O)CCCN)C(C)O)CCNC(=O)[C@H](C(C)O)NC(=O)[C@H](CCN)NC(=O)[C@H](CCN)NC1=O (some centres unmarked) [Example 4, 4-Aminobutanoyl polymyxin B nonapeptide] (H-[GABA][Thr(3ξ)][Dab][Dab][Dab][dF]L[Dab][Dab][Thr(3ξ)]; lactam 4-C)	=	8
CC(C)C[C@@H]1NC(=O)[C@@H](Cc2ccccc2)NC(=O)[C@H](CCN)NC(=O)[C@@H](NC(=O)[C@H](CCN)NC(=O)[C@@H](NC(=O)CC(N)C2CCCCC2)C(C)O)CCNC(=O)[C@H](C(C)O)NC(=O)[C@H](CCN)NC(=O)[C@H](CCN)NC1=O (stereo partly drawn) [Example 10] ({ξβ3hGly(cHex)}-[Thr(3ξ)][Dab][Dab][Dab][dF]L[Dab][Dab][Thr(3ξ)]; lactam 3-C)	=	4
CC(C)C[C@@H]1NC(=O)[C@@H](Cc2ccccc2)NC(=O)[C@H](CCN)NC(=O)[C@@H](NC(=O)[C@H](CCN)NC(=O)[C@@H](NC(=O)[C@H]2CC[C@H](N)CC2)[C@@H](C)O)CCNC(=O)[C@H]([C@@H](C)O)NC(=O)[C@H](CCN)NC(=O)[C@H](CCN)NC1=O [Example 17] (H-[Achc(trans-4)]T[Dab][Dab][Dab][dF]L[Dab][Dab]T; lactam 4-C)	=	16
CC(C)C[C@@H]1NC(=O)[C@@H](Cc2ccccc2)NC(=O)[C@H](CCN)NC(=O)[C@@H](NC(=O)[C@H](CCN)NC(=O)[C@@H](NC(=O)[C@H](CCN)NC(=O)CC(N)C2CCCCC2)C(C)O)CCNC(=O)[C@H](C(C)O)NC(=O)[C@H](CCN)NC(=O)[C@H](CCN)NC1=O (mixture of isomers) [Example 39, trifluoroacetate salt]	=	4
CC(C)C[C@@H]1NC(=O)[C@@H](Cc2ccccc2)NC(=O)[C@H](CCN)NC(=O)[C@@H](NC(=O)[C@H](CCN)NC(=O)[C@@H](NC(=O)CCC(C)(C)N)C(C)O)CCNC(=O)[C@H](C(C)O)NC(=O)[C@H](CCN)NC(=O)[C@H](CCN)NC1=O (some centres unmarked) [Example 21] (X14-[Thr(3ξ)][Dab][Dab][Dab][dF]L[Dab][Dab][Thr(3ξ)]; lactam 3-C)	>	32
CC(C)C[C@@H]1NC(=O)[C@@H](Cc2ccccc2)NC(=O)[C@H](CCN)NC(=O)[C@@H](NC(=O)[C@H](CN)NC(=O)[C@@H](NC(=O)C2CCCC2N)C(C)O)CCNC(=O)[C@H](C(C)O)NC(=O)[C@H](CCN)NC(=O)[C@H](CCN)NC1=O (some centres unmarked) [Example 43, TFA salt] (X4-[Thr(3ξ)][Dap][Dab][Dab][dF]L[Dab][Dab][Thr(3ξ)]; lactam 3-C)	=	16
CC(C)C[C@@H]1NC(=O)[C@@H](Cc2ccccc2)NC(=O)[C@H](CCN)NC(=O)[C@@H](NC(=O)[C@H](CN)NC(=O)[C@@H](NC(=O)CC(N)C2CCCCC2)C(C)O)CCNC(=O)[C@H](C(C)O)NC(=O)[C@H](CCN)NC(=O)[C@H](CCN)NC1=O (stereo partly drawn) [Example 47, TFA salt] ({ξβ3hGly(cHex)}-[Thr(3ξ)][Dap][Dab][Dab][dF]L[Dab][Dab][Thr(3ξ)]; lactam 3-C)	=	4
CC(C)C[C@@H]1NC(=O)[C@@H](Cc2ccccc2)NC(=O)[C@H](CCN)NC(=O)[C@@H](NC(=O)[C@H](CCN)NC(=O)[C@@H](NC(=O)CC(N)c2ccccc2)C(C)O)CCNC(=O)[C@H](C(C)O)NC(=O)[C@H](CCN)NC(=O)[C@H](CCN)NC1=O (stereo partly drawn) [Example 28] (ξβ3hPhg-[Thr(3ξ)][Dab][Dab][Dab][dF]L[Dab][Dab][Thr(3ξ)]; lactam 3-C)	=	32
CC(C)C[C@@H]1NC(=O)[C@@H](Cc2ccccc2)NC(=O)[C@H](CCN)NC(=O)[C@@H](NC(=O)[C@H](CCN)NC(=O)[C@@H](NC(=O)CCCCCN)C(C)O)CCNC(=O)[C@H](C(C)O)NC(=O)[C@H](CCN)NC(=O)[C@H](CCN)NC1=O (some centres unmarked) [Example 2, 6-Aminohexanoyl polymyxin B nonapeptide] (H-[Ahx][Thr(3ξ)][Dab][Dab][Dab][dF]L[Dab][Dab][Thr(3ξ)]; lactam 4-C)	=	8
CC(C)C[C@@H]1NC(=O)[C@@H](Cc2ccccc2)NC(=O)[C@H](CCN)NC(=O)[C@@H](NC(=O)[C@H](CN)NC(=O)[C@@H](NC(=O)C(O)C2CCCCC2)C(C)O)CCNC(=O)[C@H](C(C)O)NC(=O)[C@H](CCN)NC(=O)[C@H](CCN)NC1=O (some centres unmarked) [Example 45, TFA salt] (ξHexahydromandeloyl-[Thr(3ξ)][Dap][Dab][Dab][dF]L[Dab][Dab][Thr(3ξ)]; lactam 3-C)	=	16

---

test system: Pseudomonas aeruginosa; experiment: MIC, compound in combination with a second agent (broth microdilution); assay type: cell-based; conditions: 1:1 (wt:wt) combination with Rifampicin; MIC = total drug concentration; strain ATCC CRM-9027
Counter-ions that a name gives are not always drawn. Numbered stars: 1 amine (or outer) side, 2 acyl side, 3 side chain; on linkers, the order of the positions; unused ones are H or OH. Bridge positions count the residues as written; N and C are the ends. Square brackets hold non-standard residues; d marks the D form. Peptide text beside a SMILES is read from it. * marks the point of attachment. ξ: configuration not given here. Acetyl(cis-4-NH-cyclohexyl) = O=C(C[C@H]1CC[C@@H](N[*:1])CC1)[*:2]; ξHexahydromandeloyl = O=C(C(O)C1CCCCC1)*; ξβ3hGly(cHex) = NC(CC(=O)*)C1CCCCC1; X8 = N[C@@H]1CC[C@H](C(=O)*)C1; Thr(3ξ) = CC(O)[C@H](N)C(=O)O; X11 = O=C(C(O)c1cccc(Br)c1)*; X5 = O=C(C[C@@H]1CCCCN1)*; X10 = NC1(CC(=O)*)CCCCC1; Dab = NCC[C@H](N)C(=O)O; Inp = O=C(O)C1CCNCC1; X4 = NC1CCCC1C(=O)*
endpoint.name: MIC P. aeruginosa ATCC CRM-9027 (micrograms/mL)

compound	comparative.sign	meas.value
CC(C)C[C@@H]1NC(=O)[C@@H](Cc2ccccc2)NC(=O)[C@H](CCN)NC(=O)[C@@H](NC(=O)[C@H](CCN)NC(=O)[C@@H](NC(=O)CC2(N)CCCCC2)C(C)O)CCNC(=O)[C@H](C(C)O)NC(=O)[C@H](CCN)NC(=O)[C@H](CCN)NC1=O (some centres unmarked) [Example 42, TFA salt] (X10-[Thr(3ξ)][Dab][Dab][Dab][dF]L[Dab][Dab][Thr(3ξ)]; lactam 3-C)	=	0.25
CC(C)C[C@@H]1NC(=O)[C@@H](Cc2ccccc2)NC(=O)[C@H](CCN)NC(=O)[C@@H](NC(=O)[C@H](CCN)NC(=O)[C@@H](NC(=O)[C@H](CCN)NC(=O)CC(N)C2CCCCC2)C(C)O)CCNC(=O)[C@H](C(C)O)NC(=O)[C@H](CCN)NC(=O)[C@H](CCN)NC1=O (mixture of isomers) [Example 39, trifluoroacetate salt]	=	0.25
CC(C)C[C@@H]1NC(=O)[C@@H](Cc2ccccc2)NC(=O)[C@H](CCN)NC(=O)[C@@H](NC(=O)[C@H](CCN)NC(=O)[C@@H](NC(=O)C[C@@H]2CCCCN2)C(C)O)CCNC(=O)[C@H](C(C)O)NC(=O)[C@H](CCN)NC(=O)[C@H](CCN)NC1=O (some centres unmarked) [Example 33, trifluoroacetate salt] (X5-[Thr(3ξ)][Dab][Dab][Dab][dF]L[Dab][Dab][Thr(3ξ)]; lactam 3-C)	≤	0.06
CC(C)C[C@@H]1NC(=O)[C@@H](Cc2ccccc2)NC(=O)[C@H](CCN)NC(=O)[C@@H](NC(=O)[C@H](CCN)NC(=O)[C@@H](NC(=O)C[C@H]2CC[C@@H](N)CC2)C(C)O)CCNC(=O)[C@H](C(C)O)NC(=O)[C@H](CCN)NC(=O)[C@H](CCN)NC1=O (stereo partly drawn) [Example 36, trifluoroacetate salt] ({Acetyl(cis-4-NH-cyclohexyl)}-[Thr(3ξ)][Dab][Dab][Dab][dF]L[Dab][Dab][Thr(3ξ)]; lactam 3-C)	=	0.25
CC(C)C[C@@H]1NC(=O)[C@@H](Cc2ccccc2)NC(=O)[C@H](CCN)NC(=O)[C@@H](NC(=O)[C@@H](CO)NC(=O)[C@@H](NC(=O)C2CCCC2N)C(C)O)CCNC(=O)[C@H](C(C)O)NC(=O)[C@H](CCN)NC(=O)[C@H](CCN)NC1=O (some centres unmarked) [Example 44, TFA salt] (X4-[Thr(3ξ)][dS][Dab][Dab][dF]L[Dab][Dab][Thr(3ξ)]; lactam 3-C)	=	0.5
CC(C)C[C@@H]1NC(=O)[C@@H](Cc2ccccc2)NC(=O)[C@H](CCN)NC(=O)[C@@H](NC(=O)[C@H](CCN)NC(=O)[C@@H](NC(=O)C(O)c2cccc(Br)c2)C(C)O)CCNC(=O)[C@H](C(C)O)NC(=O)[C@H](CCN)NC(=O)[C@H](CCN)NC1=O (some centres unmarked) [Example 18] (X11-[Thr(3ξ)][Dab][Dab][Dab][dF]L[Dab][Dab][Thr(3ξ)]; lactam 3-C)	=	1
CC(C)C[C@@H]1NC(=O)[C@@H](Cc2ccccc2)NC(=O)[C@H](CCN)NC(=O)[C@@H](NC(=O)[C@H](CCN)NC(=O)[C@@H](NC(=O)[C@H]2CC[C@@H](N)C2)C(C)O)CCNC(=O)[C@H](C(C)O)NC(=O)[C@H](CCN)NC(=O)[C@H](CCN)NC1=O (some centres unmarked) [Example 34B] (X8-[Thr(3ξ)][Dab][Dab][Dab][dF]L[Dab][Dab][Thr(3ξ)]; lactam 3-C)	=	0.25
CC(C)C[C@@H]1NC(=O)[C@@H](Cc2ccccc2)NC(=O)[C@H](CCN)NC(=O)[C@@H](NC(=O)[C@@H](CO)NC(=O)[C@@H](NC(=O)C(O)C2CCCCC2)C(C)O)CCNC(=O)[C@H](C(C)O)NC(=O)[C@H](CCN)NC(=O)[C@H](CCN)NC1=O (some centres unmarked) [Example 46, TFA salt] (ξHexahydromandeloyl-[Thr(3ξ)][dS][Dab][Dab][dF]L[Dab][Dab][Thr(3ξ)]; lactam 3-C)	=	1
CC(C)C[C@H]1NC(=O)[C@H](CCN)NC(=O)[C@@H](NC(=O)[C@H](CCN)NC(=O)[C@@H](NC(=O)CC(N)C2CCCCC2)C(C)O)CCNC(=O)[C@H](C(C)O)NC(=O)[C@H](CCN)NC(=O)[C@H](CCN)NC(=O)[C@H](C(C)O)NC1=O (stereo partly drawn) [Example 50] ({ξβ3hGly(cHex)}-[Thr(3ξ)][Dab][Dab][Dab][dL][Thr(3ξ)][Dab][Dab][Thr(3ξ)]; lactam 3-C)	=	0.125
CC(C)C[C@@H]1NC(=O)[C@@H](Cc2ccccc2)NC(=O)[C@H](CCN)NC(=O)[C@@H](NC(=O)[C@H](CCN)NC(=O)[C@@H](NC(=O)C2CCNCC2)C(C)O)CCNC(=O)[C@H](C(C)O)NC(=O)[C@H](CCN)NC(=O)[C@H](CCN)NC1=O (some centres unmarked) [Example 29] (H-[Inp][Thr(3ξ)][Dab][Dab][Dab][dF]L[Dab][Dab][Thr(3ξ)]; lactam 4-C)	=	0.125
CC(C)C[C@@H]1NC(=O)[C@@H](Cc2ccccc2)NC(=O)[C@H](CCN)NC(=O)[C@@H](NC(=O)[C@H](CCCCN)NC(=O)[C@@H](NC(=O)C2CCNCC2)C(C)O)CCNC(=O)[C@H](C(C)O)NC(=O)[C@H](CCN)NC(=O)[C@H](CCN)NC1=O (some centres unmarked) [Example 51, TFA salt] (H-[Inp][Thr(3ξ)]K[Dab][Dab][dF]L[Dab][Dab][Thr(3ξ)]; lactam 4-C)	=	0.25
